Where these numbers come from: PubChem BioAssay

- protocolSummary: inhibition of 3D7 malaria parasite growth – strain 3D7 (AID 2306);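 further: 0% = DMSO wells and 100% = chloroquine plus artemisinin control wells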
- experimentalParameters: P. falciparum 3D7 erythrocytic growth, LDH absorbance, 72 h; at 2 µM; stronger effect = higher value
Reported growth inhibition by item:
measuredProperty: growth inhibition (%)

- molecule: "CN(c1cc(NC(=O)c2ccc(F)cc2)ccn1)C1CCN(Cc2cccc(O)c2)CC1"
  measuredProperty: "growth inhibition"
  observedValue: 100
- molecule: "CN(c1cc(NC(=O)c2cccs2)ccn1)C1CCN(Cc2cccc(F)c2)CC1"
  measuredProperty: "growth inhibition"
  observedValue: 94
- molecule: "COc1ccc(CN2CCN(CCOC(c3ccccc3)c3ccc(Cl)cc3)CC2)c(O)c1 (centres undefined)"
  measuredProperty: "growth inhibition"
  observedValue: 99
- molecule: "Cc1c(C)c2c(c(C)c1O)CC[C@@](C)(C(=O)N1CCC(CN3CCC(c4c[nH]c5ccccc45)CC3)CC1)O2"
  measuredProperty: "growth inhibition"
  observedValue: 98
- molecule: "C[C@H](Cc1ccc(OCCCCCCOc2ccccc2)cc1)NC[C@@H](O)c1cc(Br)no1"
  measuredProperty: "growth inhibition"
  observedValue: 94
- molecule: "O=C(c1ccccc1)[C@H]1C[C@@H]1CN1CC=C(c2c[nH]c3ccccc23)CC1"
  measuredProperty: "growth inhibition"
  observedValue: 95
- molecule: "CCC1(C)CC(CCNCc2ccccc2O)(c2ccc(C)cc2)CCO1 (centres undefined)"
  measuredProperty: "growth inhibition"
  observedValue: 97
- molecule: "O=C(NC1CCC(CN2CCC(c3c[nH]c4ccccc34)CC2)CC1)c1cc2cccc([N+](=O)[O-])c2[nH]1 (centres undefined)"
  measuredProperty: "growth inhibition"
  observedValue: 103
- molecule: "CC(=O)N(Cc1ccccc1-c1cccc(CNCc2ccc3c(c2)OCO3)c1)C1CCN(Cc2ccccc2)CC1"
  measuredProperty: "growth inhibition"
  observedValue: 85
